target under test: Urease (Canavalia ensiformis)
Sequence (P07374 whole entry): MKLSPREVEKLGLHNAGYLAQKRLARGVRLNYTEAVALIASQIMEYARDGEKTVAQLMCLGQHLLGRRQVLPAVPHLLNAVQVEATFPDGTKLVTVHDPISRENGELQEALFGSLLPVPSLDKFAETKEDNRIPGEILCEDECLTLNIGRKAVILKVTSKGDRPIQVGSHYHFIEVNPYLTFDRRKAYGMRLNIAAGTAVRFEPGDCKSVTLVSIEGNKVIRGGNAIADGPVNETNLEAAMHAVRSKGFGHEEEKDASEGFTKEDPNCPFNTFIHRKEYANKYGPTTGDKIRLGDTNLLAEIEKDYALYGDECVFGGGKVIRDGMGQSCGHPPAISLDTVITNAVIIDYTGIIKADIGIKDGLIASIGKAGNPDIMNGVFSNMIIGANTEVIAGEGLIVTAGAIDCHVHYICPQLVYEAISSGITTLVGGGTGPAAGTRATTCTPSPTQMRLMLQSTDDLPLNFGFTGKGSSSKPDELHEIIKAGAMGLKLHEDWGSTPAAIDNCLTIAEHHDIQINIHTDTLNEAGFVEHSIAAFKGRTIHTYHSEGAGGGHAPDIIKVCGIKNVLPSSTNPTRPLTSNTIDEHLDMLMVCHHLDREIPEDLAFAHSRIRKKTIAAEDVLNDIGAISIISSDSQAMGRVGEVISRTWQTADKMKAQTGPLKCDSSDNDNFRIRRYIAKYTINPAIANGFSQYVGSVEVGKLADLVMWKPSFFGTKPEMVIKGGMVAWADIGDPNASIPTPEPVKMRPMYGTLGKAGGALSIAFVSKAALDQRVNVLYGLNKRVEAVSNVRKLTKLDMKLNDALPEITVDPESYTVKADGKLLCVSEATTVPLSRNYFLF
assay comment: Mixed-type inhibition of jack bean urease using urea as substrate assessed as ammonia production after 15 mins by Lineweaver-Burk/Dixon plot analysis
The molecules listed here are annotated with their Ki.
measurement label: Ki (µM)

| smiles representation | units of measure | endpoint value |
| --- | --- | --- |
| S=C(Nc1cccc(Cl)c1)Nc1cccc(Cl)c1 | µM | 18.1 |
| Cc1cccc(NC(=S)Nc2cccc(Cl)c2)c1 | µM | 15.7 |
| S=C(Nc1ccc(Cl)cc1)Nc1cccc(Cl)c1 | µM | 18.1 |
| Fc1ccc(NC(=S)Nc2cccc(Cl)c2)cc1 | µM | 16.8 |
| S=C(Nc1ccccc1)Nc1cccc(Br)c1 | µM | 15.6 |
| Cc1ccc(Cl)cc1NC(=S)Nc1cccc(Cl)c1 | µM | 18.5 |
| Cc1ccc(C)c(NC(=S)Nc2cccc(Cl)c2)c1 | µM | 19.3 |
